System: 293T cells
measurement.description: Cell survival rate assay (CCK-8)
Assay type: cell-based
measurement.setup: difference vs YK-419
Here, each record is paired with measured cell survival rate higher than YK-419 data.
Please reply with the bare figure in % and do not write the unit itself.

* CCCCCCCCC(CCCCCCCC)C(=O)OCCCCCCN(CCO)CCN(CCO)CCCCCCOC(=O)C(CCCCCCCC)CCCCCCCC | 33.78
* CCCCCCCCC(CCCCCCCC)OC(=O)CCCCCCCN(CCO)CCN(CCO)CCCCCCCC(=O)OC(CCCCCCCC)CCCCCCCC | 31.84
* CCCCCCCCC(CCCCCCCC)COC(=O)CCCCCN(CCCO)CCN(CCCO)CCCCCC(=O)OCC(CCCCCCCC)CCCCCCCC | 31.56
* CCCCCCCCC(CCCCCCCC)COC(=O)CCCCCN(CCCO)CCCN(CCCO)CCCCCC(=O)OCC(CCCCCCCC)CCCCCCCC | 32.22
* CCCCCCCCCCCOC(=O)CCCN(CCO)CCN(CCO)CCCCCC(=O)OC(CCCCCCCC)CCCCCCCC | 32.45

Next item in the queue.
Please state recorded cell survival rate higher than YK-419 (tested on 293T cells) of CCCCCCCCC(CCCCCCCC)OC(=O)CCCCCN(CCO)CCN(CCO)CCCCCC(=O)OC(CCCCCCCC)CCCCCCCC
36.29

---

Below is a list of entries, each paired with its recorded cell transfection efficiency, times that of YK-421 value.
Test system: 293T cells
measurement.description: Fluorescent detection of Fluc-mRNA (cell transfection efficiency of LNP formulations)
Type: cell-based
measurement.setup: ratio vs YK-421
Just the number, please.

A selection of reference data follows.
• CCCCCCCCC(CCCCCCCC)COC(=O)CCCCCN(CCCO)CCCN(CCCO)CCCCCC(=O)OCC(CCCCCCCC)CCCCCCCC [YK-423] = 13.35
• CCCCCCCCC(CCCCCCCC)COC(=O)CCCCCN(CCCO)CCN(CCCO)CCCCCC(=O)OCC(CCCCCCCC)CCCCCCCC [YK-422] = 13.79
• CCCCCCCCC(CCCCCCCC)C(=O)OCCCCCCN(CCO)CCN(CCO)CCCCCCOC(=O)C(CCCCCCCC)CCCCCCCC [YK-402] = 10.81

Entry under review: CCCCCCCCC(CCCCCCCC)OC(=O)CCCCCCCN(CCO)CCN(CCO)CCCCCCCC(=O)OC(CCCCCCCC)CCCCCCCC [YK-403] . Reported cell transfection efficiency, times that of YK-421?
11.25

// next record CCCCCCCCCCCOC(=O)CCCN(CCO)CCN(CCO)CCCCCC(=O)OC(CCCCCCCC)CCCCCCCC [YK-407]
43.69

Same question, CCCCCCCCC(CCCCCCCC)OC(=O)CCCCCN(CCO)CCN(CCO)CCCCCC(=O)OC(CCCCCCCC)CCCCCCCC [YK-401] this time
12.02

---

Tested on: female BALB/C mice
measurement.description: In vivo imaging in mice of Fluc-mRNA LNP formulations (mRNA expression and duration)
measurement.setup: 24 h
Under this convention, class 1 denotes mRNA expression in mice, times that of YK-411 strictly below 400 and class 0 denotes mRNA expression in mice, times that of YK-411 at or above 400.

Record excerpt, results attached:
* CCCCCCCCC(CCCCCCCC)COC(=O)CCCCCN(CCCO)CCN(CCCO)CCCCCC(=O)OCC(CCCCCCCC)CCCCCCCC | class 1
* CCCCCCCCC(CCCCCCCC)COC(=O)CCCCCN(CCCO)CCCN(CCCO)CCCCCC(=O)OCC(CCCCCCCC)CCCCCCCC | class 1

Below: the item to evaluate.
Input CCCCCCCCC(CCCCCCCC)OC(=O)CCCCCCCN(CCO)CCN(CCO)CCCCCCCC(=O)OC(CCCCCCCC)CCCCCCCC ; condition: mRNA expression in mice, times that of YK-411 strictly below 400. Does it hold?
class 0

---

Quick reference for Encapsulation efficiency among some molecules
measurement.description: Detection of encapsulation efficiency, drug loading concentration and total RNA concentration (RiboGreen)
Type: physicochemical
measurement.setup: LNP formulation prepared from the cationic lipid
API: value field is a number in %; no unit string.

• CCCCCCCCC(CCCCCCCC)OC(=O)CCCCCCCN(CCO)CCN(CCO)CCCCCCCC(=O)OC(CCCCCCCC)CCCCCCCC = 87.9

Endpoint output: Encapsulation efficiency of CCCCCCCCCCCOC(=O)CCCN(CCO)CCN(CCO)CCCCCCOC(=O)CC(CCCCCC)CCCCCC . Value?
87.8

What about CCCCCCCCC(CCCCCCCC)OC(=O)CCCCCN(CCO)CCCCN(CCO)CCCCCC(=O)OC(CCCCCCCC)CCCCCCCC ?
94.9

Input CCCCCCCCCCOC(=O)CCCN(CCO)CCCN(CCO)CCCCCCOC(=O)CC(CCCCCC)CCCCCC
75.6

What do you have for CCCCCCCCCCCOC(=O)CCCCCN(CCO)CCCCCCCC(=O)OC(CCCCCCCC)CCCCCCCC [SM-102, reference compound] ?
62.9

Further, for CCCCCCCCC(CCCCCCCC)OC(=O)CCCCCN(CCO)CCN(CCO)CCCCCC(=O)OC(CCCCCCCC)CCCCCCCC ?
83.6

Next molecule: CCCCCCCCCCCOC(=O)CCCN(CCO)CCCN(CCO)CCCCCC(=O)OCC(CCCCCCCC)CCCCCCCC
87.8

What do you get for CCCCCCCCCCOC(=O)CCCCCN(CCO)CCN(CCO)CCCCCC(=O)OCC(CCCCCCCC)CCCCCCCC ?
88.2

Same question, CCCCCCCCCCCOC(=O)CCCN(CCO)CCCN(CCO)CCCCCC(=O)OC(CCCCCCCC)CCCCCCCC this time
83.3

Same again, this time with CCCCCCCCCCOC(=O)CCCCCN(CCO)CCN(CCO)CCCCCC(=O)OCCC(CCCCCC)CCCCCC
86.3

Next molecule up: CCCCCCCCC(CCCCCCCC)COC(=O)CCCCCN(CCCO)CCCCN(CCCO)CCCCCC(=O)OCC(CCCCCCCC)CCCCCCCC
92.8

// query: CCCCCCCCCCCOC(=O)CCCN(CCO)CCN(CCO)CCCCCC(=O)OC(CCCCCCCC)CCCCCCCC
85.2

What about this molecule? CCCCCC(CC)OC(=O)CCCCCCCCN(CCO)CCN(CCO)CCCCCCCCC(=O)OC(CC)CCCCC (centres unmarked)
75.3

---

# Lookup of reported cell survival rate higher than YK-418 keyed by entry
Test system: 293T cells
measurement.description: Cell survival rate assay (CCK-8)
Assay type: cell-based
measurement.setup: difference vs YK-418
Answer in %, number only, no unit symbol.

Request body: readout cell survival rate higher than YK-418, system 293T cells, query CCCCCCCCC(CCCCCCCC)OC(=O)CCCCCCCN(CCO)CCN(CCO)CCCCCCCC(=O)OC(CCCCCCCC)CCCCCCCC [YK-403] . Return the value.
49.71

Try this compound next: CCCCCCCCC(CCCCCCCC)COC(=O)CCCCCN(CCCO)CCCN(CCCO)CCCCCC(=O)OCC(CCCCCCCC)CCCCCCCC [YK-423]
50.09

What do you get for CCCCCCCCCCCOC(=O)CCCN(CCO)CCN(CCO)CCCCCC(=O)OC(CCCCCCCC)CCCCCCCC [YK-407] ?
50.32

Next entry: CCCCCCCCC(CCCCCCCC)OC(=O)CCCCCN(CCO)CCN(CCO)CCCCCC(=O)OC(CCCCCCCC)CCCCCCCC [YK-401]
54.16

Now the same for CCCCCCCCC(CCCCCCCC)C(=O)OCCCCCCN(CCO)CCN(CCO)CCCCCCOC(=O)C(CCCCCCCC)CCCCCCCC [YK-402]
51.65

Do the same for CCCCCCCCC(CCCCCCCC)COC(=O)CCCCCN(CCCO)CCN(CCCO)CCCCCC(=O)OCC(CCCCCCCC)CCCCCCCC [YK-422] please
49.43

---

Test system: female BALB/C mice
measurement.description: In vivo imaging in mice of Fluc-mRNA LNP formulations (mRNA expression and duration)
measurement.setup: 48 h
Tick Condition met if average radiation intensity, times that of ALC-0315 is 9 or greater. Tick Condition not met if average radiation intensity, times that of ALC-0315 is less than 9.

• CCCCCCCCC(CCCCCCCC)C(=O)OCCCCCCN(CCO)CCN(CCO)CCCCCCOC(=O)C(CCCCCCCC)CCCCCCCC [YK-402] = Condition not met
• CCCCCCCCC(CCCCCCCC)COC(=O)CCCCCN(CCCO)CCN(CCCO)CCCCCC(=O)OCC(CCCCCCCC)CCCCCCCC [YK-422] = Condition not met
• CCCCCCCCC(CCCCCCCC)OC(=O)CCCCCCCN(CCO)CCN(CCO)CCCCCCCC(=O)OC(CCCCCCCC)CCCCCCCC [YK-403] = Condition not met

Okay, next one:
Would you say CCCCCCCCC(CCCCCCCC)OC(=O)CCCCCN(CCO)CCN(CCO)CCCCCC(=O)OC(CCCCCCCC)CCCCCCCC [YK-401] shows average radiation intensity, times that of ALC-0315 at minimum 9?
Condition met
